Biological target: T1, recombinant human IL13Rα2 fused to an Fc domain of human IgG1 (hIL13Rα2-Fc) (human, UniProt Q14627 27-343, limits assumed)
T1 construct: Bought construct (R&D Systems); The Fc can be removed by Factor Xa, so a Factor Xa site lies between the parts; not shown: Fc domain of human IgG1
T1 sequence (looked up): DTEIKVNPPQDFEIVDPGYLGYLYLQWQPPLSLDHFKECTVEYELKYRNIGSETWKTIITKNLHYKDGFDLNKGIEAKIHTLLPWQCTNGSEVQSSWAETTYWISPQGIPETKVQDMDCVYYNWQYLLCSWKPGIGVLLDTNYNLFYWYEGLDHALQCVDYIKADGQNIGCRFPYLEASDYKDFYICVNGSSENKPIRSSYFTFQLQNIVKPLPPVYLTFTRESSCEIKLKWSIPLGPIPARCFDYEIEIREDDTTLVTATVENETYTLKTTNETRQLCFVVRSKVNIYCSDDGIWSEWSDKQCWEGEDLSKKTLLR
Assay: Octet KD relative to clone 2 parental
Items are presented alongside their recorded KD fold difference.
All answers are understood in fold, so give the number only.

Look over these answered cases.
Llama single domain anti-IL13Rα2 Clone 2 (LSD2) (VHH, Captured on a Ni-NTA sensor, so a His tag is implied; the tag is not described; also called 2-parental; clone 2 parental) VHH: DVQLVESGGGLVQPGGSLRLSCEASGFASDDYIIGWFRQAPGKEREGVSCISSRYANTVYTDSVKGRFRISRGTAKNTVYLQMSALKPEDTAVYYCAMDSRRVTCPEISTMHRNFDSWGQGTQVTVSS    1
anti-IL13Rα2 Clone 2 humanized variant 2-h3 (VHH) VHH: EVQLVESGGGLVQPGGSLRLSCAASGFASDDYIMGWFRQAPGKGLEGVSCISSRYANTVYADSVKGRFTISRGNAKNTVYLQMSSLRPEDTAVYYCAMDSRRVTCPEISTMHRNFDSWGQGTQVTVSS    1.1
anti-IL13Rα2 Clone 2 humanized variant 2-h4 (VHH) VHH: EVQLVESGGGLVQPGGSLRLSCAASGFASDDYIMGWFRQAPGKGLEGVSCISSRYANTVYADSVKGRFTISRGNAKNTVYLQMNSLRPEDTAVYYCAMDSRRVTCPEISTMHRNFDSWGQGTQVTVSS    1.2
anti-IL13Rα2 Clone 2 humanized variant 2-h6 (VHH) VHH: EVQLVESGGGLVQPGGSLRLSCAASGFASDDYIMGWFRQAPGKGLEGVSCISSRYANTVYADSVKGRFTISRDNAKNTLYLQMNSLRPEDTAVYYCAMDSRRVTCPEISTMHRNFDSWGQGTQVTVSS    1.4
anti-IL13Rα2 Clone 2 humanized variant 2-h1 (VHH) VHH: EVQLVESGGGLVQPGGSLRLSCAASGFASDDYIMGWFRQAPGKGLEGVSCISSRYANTVYADSVKGRFRISRGNAKNTVYLQMSALRPEDTAVYYCAMDSRRVTCPEISTMHRNFDSWGQGTQVTVSS    1.1

Q: Report KD fold difference for Humanized Llama single domain anti-IL13Rα2 Clone 2-h10 (H2-LSD2) (VHH, Captured on a Ni-NTA sensor, so a His tag is implied; the tag is not described) VHH: EVQLVESGGGLVQPGGSLRLSCAASGFASDDYIMGWVRQAPGKGLEWVSCISSRYANTYYADSVKGRFTISRDNAKNTLYLQMNSLRPEDTAVYYCAMDSRRVTCPEISTMHRNFDSWGQGTLVTVSS please.
A: 4.1

Q: Report KD fold difference for anti-IL13Rα2 Clone 2 humanized variant 2-h5 (VHH) VHH: EVQLVESGGGLVQPGGSLRLSCAASGFASDDYIMGWFRQAPGKGLEGVSCISSRYANTVYADSVKGRFTISRDNAKNTVYLQMNSLRPEDTAVYYCAMDSRRVTCPEISTMHRNFDSWGQGTQVTVSS please.
A: 1.1

Q: Report KD fold difference for Humanized Llama Single domain anti-IL13Rα2 Clone 2-h8 (H1-LSD2) (VHH, Captured on a Ni-NTA sensor, so a His tag is implied; the tag is not described) VHH: EVQLVESGGGLVQPGGSLRLSCAASGFASDDYIMGWFRQAPGKGLEGVSCISSRYANTYYADSVKGRFTISRDNAKNTLYLQMNSLRPEDTAVYYCAMDSRRVTCPEISTMHRNFDSWGQGTLVTVSS please.
A: 1.2
